Data export: deltaH values recorded with Ephrin type-A receptor 4 (Homo sapiens).
Sequence (P54764 whole entry): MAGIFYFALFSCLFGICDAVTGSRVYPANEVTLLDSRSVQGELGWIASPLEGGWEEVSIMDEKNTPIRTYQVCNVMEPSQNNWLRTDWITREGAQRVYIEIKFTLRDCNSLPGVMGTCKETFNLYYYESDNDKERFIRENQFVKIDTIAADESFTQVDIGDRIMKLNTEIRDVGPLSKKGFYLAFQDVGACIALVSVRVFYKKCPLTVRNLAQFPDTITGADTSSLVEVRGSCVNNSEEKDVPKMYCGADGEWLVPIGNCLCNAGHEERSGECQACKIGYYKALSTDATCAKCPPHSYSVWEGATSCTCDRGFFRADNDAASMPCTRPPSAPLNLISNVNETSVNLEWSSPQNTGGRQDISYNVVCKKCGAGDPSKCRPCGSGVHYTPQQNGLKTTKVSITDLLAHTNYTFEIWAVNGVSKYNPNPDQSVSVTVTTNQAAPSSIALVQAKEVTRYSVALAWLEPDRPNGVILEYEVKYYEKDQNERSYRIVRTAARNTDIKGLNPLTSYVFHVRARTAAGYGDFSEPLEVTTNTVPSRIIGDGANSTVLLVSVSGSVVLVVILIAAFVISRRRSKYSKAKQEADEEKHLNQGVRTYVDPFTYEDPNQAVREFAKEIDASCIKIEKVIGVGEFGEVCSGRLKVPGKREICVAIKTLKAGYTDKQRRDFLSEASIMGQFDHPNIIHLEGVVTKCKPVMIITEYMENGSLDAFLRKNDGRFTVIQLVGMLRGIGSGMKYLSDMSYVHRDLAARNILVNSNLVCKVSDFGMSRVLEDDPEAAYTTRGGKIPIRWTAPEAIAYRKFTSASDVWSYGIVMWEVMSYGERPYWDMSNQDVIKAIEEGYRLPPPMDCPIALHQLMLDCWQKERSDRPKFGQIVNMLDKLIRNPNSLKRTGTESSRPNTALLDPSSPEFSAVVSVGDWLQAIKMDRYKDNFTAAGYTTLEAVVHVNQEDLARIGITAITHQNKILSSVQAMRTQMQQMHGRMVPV
Non-standard residues stand in square brackets, D forms with d. Residues, ends and D or L forms follow the SMILES beside them. *: point of attachment. Trp(5-OH) = N[C@@H](Cc1c[nH]c2ccc(O)cc12)C(=O)O; Trp(7-aza) = N[C@@H](Cc1c[nH]c2ncccc12)C(=O)O; Bip = N[C@@H](Cc1ccc(-c2ccccc2)cc1)C(=O)O; hArg = N=C(N)NCCCC[C@H](N)C(=O)O; NHPh = c1ccc(N*)cc1; GABA = NCCCC(=O)O
Provide the reading as a plain figure in kcal/mol.

Prompt line: Entry N=C(N)NCCCC[C@H](NC(=O)[C@H](Cc1ccc(-c2ccccc2)cc1)NC(=O)[C@H](Cc1c[nH]c2ccc(O)cc12)NC(=O)[C@@H]1CC[C@@H](N)C1)C(N)=O : reported deltaH = ?
Response line: -9.82

Prompt line: Find the recorded deltaH belonging to N=C(N)NCCCC[C@H](NC(=O)[C@H](Cc1ccc(-c2ccccc2)cc1)NC(=O)[C@H](Cc1c[nH]c2ncccc12)NC(=O)CCCN)C(N)=O (H-[GABA][Trp(7-aza)][Bip][hArg]-NH2) and report it.
Response line: -7.27

Prompt line: Name the recorded deltaH for N=C(N)NCCCC[C@H](NC(=O)[C@H](Cc1ccc(-c2ccccc2)cc1)NC(=O)[C@H](Cc1c[nH]c2ccc(O)cc12)NC(=O)[C@H]1CCC[C@H](N)C1)C(N)=O .
Response line: -8.1

Prompt line: For the molecule shown here, N=C(N)NCCCC[C@H](NC(=O)[C@H](Cc1ccc(-c2ccccc2)cc1)NC(=O)[C@H](Cc1c[nH]c2ccc(O)cc12)NC(=O)CCCN)C(=O)NCC(=O)Nc1ccccc1 (H-[GABA][Trp(5-OH)][Bip][hArg]G-NHPh) , give the reported deltaH.
Response line: -12.3

Prompt line: Look up deltaH: Cc1ccccc1-c1ccc(C[C@H](NC(=O)[C@H](Cc2c[nH]c3ccc(O)cc23)NC(=O)CCCN)C(=O)N[C@@H](CCCCNC(=N)N)C(N)=O)cc1
Response line: -12.1

Origin of values: ChEMBL document CHEMBL4823296
